Molecular target: CFTR-mediated chloride transport (Homo sapiens)
Sequence (P13569 whole entry, looked up): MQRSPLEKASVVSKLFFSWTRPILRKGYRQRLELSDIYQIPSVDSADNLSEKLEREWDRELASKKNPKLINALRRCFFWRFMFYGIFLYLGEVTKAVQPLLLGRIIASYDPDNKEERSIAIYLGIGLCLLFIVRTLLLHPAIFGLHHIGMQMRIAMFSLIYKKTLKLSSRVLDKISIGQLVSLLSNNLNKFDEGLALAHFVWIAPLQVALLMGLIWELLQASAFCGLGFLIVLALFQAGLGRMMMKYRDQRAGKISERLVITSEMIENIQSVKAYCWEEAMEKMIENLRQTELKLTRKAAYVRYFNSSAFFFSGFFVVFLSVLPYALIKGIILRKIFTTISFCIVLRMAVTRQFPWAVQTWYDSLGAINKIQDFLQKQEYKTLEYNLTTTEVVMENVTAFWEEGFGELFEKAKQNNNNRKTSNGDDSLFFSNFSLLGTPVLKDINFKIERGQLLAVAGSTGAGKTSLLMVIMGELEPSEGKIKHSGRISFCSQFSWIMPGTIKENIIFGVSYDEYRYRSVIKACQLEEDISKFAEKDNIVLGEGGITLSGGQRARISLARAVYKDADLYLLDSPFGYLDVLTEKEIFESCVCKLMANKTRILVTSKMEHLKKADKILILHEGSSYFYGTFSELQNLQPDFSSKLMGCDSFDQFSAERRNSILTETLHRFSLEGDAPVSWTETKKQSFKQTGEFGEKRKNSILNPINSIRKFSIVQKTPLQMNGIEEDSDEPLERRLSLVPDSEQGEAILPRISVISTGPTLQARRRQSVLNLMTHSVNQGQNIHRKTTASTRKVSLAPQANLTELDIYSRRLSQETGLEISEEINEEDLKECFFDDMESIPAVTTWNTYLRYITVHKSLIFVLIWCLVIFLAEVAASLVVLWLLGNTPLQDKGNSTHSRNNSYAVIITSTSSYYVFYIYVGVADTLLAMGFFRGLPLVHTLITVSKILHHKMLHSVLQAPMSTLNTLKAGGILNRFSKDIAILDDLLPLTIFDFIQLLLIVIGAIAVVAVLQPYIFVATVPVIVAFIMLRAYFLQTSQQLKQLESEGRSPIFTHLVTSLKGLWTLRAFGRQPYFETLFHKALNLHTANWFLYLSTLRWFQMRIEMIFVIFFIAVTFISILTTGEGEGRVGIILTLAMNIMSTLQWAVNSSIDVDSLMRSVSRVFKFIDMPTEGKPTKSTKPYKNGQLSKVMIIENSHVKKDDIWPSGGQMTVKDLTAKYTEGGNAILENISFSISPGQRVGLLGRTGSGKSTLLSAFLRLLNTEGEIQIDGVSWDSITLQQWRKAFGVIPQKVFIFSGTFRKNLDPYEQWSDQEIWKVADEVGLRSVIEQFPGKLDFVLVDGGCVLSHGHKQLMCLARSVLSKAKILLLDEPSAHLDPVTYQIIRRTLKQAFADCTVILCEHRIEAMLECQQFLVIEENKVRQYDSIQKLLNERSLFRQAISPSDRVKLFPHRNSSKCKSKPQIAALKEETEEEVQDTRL
Type: cell-based
Conditions: enteroid cells incubated with test compound 18-24 hours; acute 10 μM forskolin and 300 nM Compound III; % of chloride transport with 3 μM Compound A, 3 μM Compound II and 300 nM acute Compound III triple combination control

{"Molecule": "CC1(C)C[C@@H]2CCCNc3cccc(n3)S(=O)(=O)NC(=O)c3ccc(N4CC[C@H](OCCC56CC7CC(CC(C7)C5)C6)C4=O)nc3N1C2 (single isomer, unassigned) [Compound 241]", "Max. Activity": "++ (++ is 30-60%)"}
{"Molecule": "CC1(C)CC[C@H]2CNc3cccc(n3)S(=O)(=O)NC(=O)c3ccc(-n4ccc(OCCC5(C(F)(F)F)CC5)n4)nc3N21 (single isomer, unassigned) [Compound 50]", "Max. Activity": "+ (+ is <30%)"}
{"Molecule": "Cc1nn2cc1S(=O)(=O)NC(=O)c1ccc(-n3ccc(OCCC4(C(F)(F)F)CC4)n3)nc1N1C[C@H](CCCC2)CC1(C)C (single isomer, unassigned) [Compound 91]", "Max. Activity": "+ (+ is <30%)"}
{"Molecule": "CC1(C)CCC(CN2CCN(c3ccc4c(n3)N3C[C@@H](CCCNc5cccc(n5)S(=O)(=O)NC4=O)CC3(C)C)C2=O)CC1 [Compound 217]", "Max. Activity": "++ (++ is 30-60%)"}

Value source: patent US11866450B2
